test_target: T1, human TMEM106B (human, UniProt Q9NUM4 2-274)
T1 construct: full-length, transiently expressed on HEK293 cells, or natively expressed on HeLa, U251 and A549 cells (the cell is named under assay); also the source of the Pepscan peptides; also called huTMEM106B; huTMEM
assay_comment: FACS HeLa
quantity_kind: MFI (MFI)
Just the number in MFI, nothing appended.

| binder | MFI [MFI] |
| --- | --- |
| TM-35 (antibody, V domains shown) VH: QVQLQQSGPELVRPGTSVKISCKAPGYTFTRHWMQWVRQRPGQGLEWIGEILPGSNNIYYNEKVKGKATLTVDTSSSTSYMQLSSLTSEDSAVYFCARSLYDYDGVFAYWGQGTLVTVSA VL: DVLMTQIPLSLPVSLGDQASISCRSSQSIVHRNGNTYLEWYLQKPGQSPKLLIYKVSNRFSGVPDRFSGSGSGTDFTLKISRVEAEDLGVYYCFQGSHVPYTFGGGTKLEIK | 241 |
| TM-14 (antibody, V domains shown, mouse IgG (hybridoma)) VH: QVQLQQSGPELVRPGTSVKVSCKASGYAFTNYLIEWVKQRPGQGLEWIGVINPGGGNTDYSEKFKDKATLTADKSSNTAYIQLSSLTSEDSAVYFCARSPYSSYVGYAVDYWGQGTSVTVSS VL: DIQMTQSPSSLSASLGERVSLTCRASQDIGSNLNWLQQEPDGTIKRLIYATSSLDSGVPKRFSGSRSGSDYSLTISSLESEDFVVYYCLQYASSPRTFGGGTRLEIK | 307 |
| TM-25 (antibody, V domains shown) VH: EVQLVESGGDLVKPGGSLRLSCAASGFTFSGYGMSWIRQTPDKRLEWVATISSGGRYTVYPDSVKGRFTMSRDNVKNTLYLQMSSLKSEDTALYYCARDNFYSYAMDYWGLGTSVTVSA VL: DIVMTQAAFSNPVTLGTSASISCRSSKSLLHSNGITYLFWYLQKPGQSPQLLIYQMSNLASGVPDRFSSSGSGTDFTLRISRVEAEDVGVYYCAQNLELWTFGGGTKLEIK | 2560 |
| TM-28 (antibody, V domains shown) VH: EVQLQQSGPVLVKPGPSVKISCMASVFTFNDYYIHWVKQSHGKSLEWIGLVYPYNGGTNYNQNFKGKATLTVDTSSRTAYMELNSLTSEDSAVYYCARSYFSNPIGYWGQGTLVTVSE VL: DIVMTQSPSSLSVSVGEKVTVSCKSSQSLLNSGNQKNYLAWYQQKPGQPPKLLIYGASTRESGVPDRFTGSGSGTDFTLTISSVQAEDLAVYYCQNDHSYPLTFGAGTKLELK | 2790 |
| TM-10 (antibody, V domains shown) VH: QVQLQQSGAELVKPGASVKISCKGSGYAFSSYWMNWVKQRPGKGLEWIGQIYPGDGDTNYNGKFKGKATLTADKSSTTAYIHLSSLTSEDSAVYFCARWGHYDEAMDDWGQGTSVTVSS VL: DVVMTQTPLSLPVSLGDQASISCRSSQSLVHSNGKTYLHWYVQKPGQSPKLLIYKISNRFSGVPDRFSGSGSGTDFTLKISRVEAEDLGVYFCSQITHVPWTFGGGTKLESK | 596 |
| TM-52 (antibody, V domains shown, mouse IgG (hybridoma)) VH: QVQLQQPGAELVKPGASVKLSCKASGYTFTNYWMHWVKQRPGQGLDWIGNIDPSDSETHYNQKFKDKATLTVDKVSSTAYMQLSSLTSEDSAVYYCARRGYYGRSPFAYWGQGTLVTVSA VL: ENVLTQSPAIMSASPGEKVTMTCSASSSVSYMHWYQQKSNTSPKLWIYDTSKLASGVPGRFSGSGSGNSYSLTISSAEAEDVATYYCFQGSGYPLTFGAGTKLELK | 227 |

Please turn your attention to the following entry.
Given TM-37 (antibody, V domains shown) VH: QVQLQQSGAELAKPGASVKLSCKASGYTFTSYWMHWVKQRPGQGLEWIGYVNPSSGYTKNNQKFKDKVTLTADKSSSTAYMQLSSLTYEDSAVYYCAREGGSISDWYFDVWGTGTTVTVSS VL: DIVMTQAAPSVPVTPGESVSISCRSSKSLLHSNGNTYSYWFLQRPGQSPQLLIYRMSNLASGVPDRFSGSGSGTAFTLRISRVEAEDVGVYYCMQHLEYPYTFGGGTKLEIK , state its recorded MFI.
254
